- Test System: human B-Raf (Homo sapiens, UniProt P15056)
- Construct: Flag; GST; made in house; host or cells: Sf9 insect cells (B-Raf); E. coli (MEK1-GST)
- Sequence (P15056 whole entry): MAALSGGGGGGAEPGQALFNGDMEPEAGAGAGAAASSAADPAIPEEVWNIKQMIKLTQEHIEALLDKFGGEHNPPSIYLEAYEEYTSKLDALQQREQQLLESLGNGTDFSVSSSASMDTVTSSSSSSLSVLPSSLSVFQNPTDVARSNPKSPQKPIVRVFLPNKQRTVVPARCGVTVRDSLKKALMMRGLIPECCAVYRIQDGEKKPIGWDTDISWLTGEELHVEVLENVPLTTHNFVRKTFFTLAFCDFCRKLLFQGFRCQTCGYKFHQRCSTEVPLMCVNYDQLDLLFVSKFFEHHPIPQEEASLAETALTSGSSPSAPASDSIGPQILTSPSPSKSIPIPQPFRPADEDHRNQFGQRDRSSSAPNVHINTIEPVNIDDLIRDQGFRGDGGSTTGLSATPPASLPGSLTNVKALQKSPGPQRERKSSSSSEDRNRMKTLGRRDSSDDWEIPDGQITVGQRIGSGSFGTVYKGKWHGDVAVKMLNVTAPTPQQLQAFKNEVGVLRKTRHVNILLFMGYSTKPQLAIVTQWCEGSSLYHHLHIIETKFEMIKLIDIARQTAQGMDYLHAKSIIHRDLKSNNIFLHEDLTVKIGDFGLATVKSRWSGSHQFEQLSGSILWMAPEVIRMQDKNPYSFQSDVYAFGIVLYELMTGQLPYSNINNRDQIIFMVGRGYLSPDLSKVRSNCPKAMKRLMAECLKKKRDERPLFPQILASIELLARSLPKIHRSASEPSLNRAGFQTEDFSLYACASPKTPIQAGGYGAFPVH
- Assay Info: B-Raf Kinase to MEK1 ELISA
- Assay type: biochemical
pIC50: −log10 of the molar value.
Values of pIC50 greater than or equal to 6 map to True; values below map to False.

Observe how each entry below is paired with its result.
Check the entry O=C(Nc1cccc(-c2ccnc3cc(N4CCNCC4)nn23)c1)c1cccc(C(F)(F)F)c1 [Example 208] : does pIC50 equal or exceed 6?
False

Check the entry Cc1cnc2c(Br)cnn2c1-c1cccc(NC(=O)c2cccc(C(F)(F)F)c2)c1 [Example 178] : does pIC50 equal or exceed 6?
False

Check the entry COc1cccc(C(=O)Nc2cccc(-c3ccnc4cc(-c5ccncc5)nn34)c2)c1 [Example 146] : does pIC50 equal or exceed 6?
False

---
Check the entry COc1ccc(-c2cnn3c(-c4cccc(NC(=O)c5cccc(C(F)(F)F)c5)c4)ccnc23)cn1 [Example 312] : does pIC50 equal or exceed 6?
True

Check the entry Cc1ccc(C(=O)Nc2cccc(-c3ccnc4c(-c5ccncc5)cnn34)c2)cc1C(F)(F)F [Example 188] : does pIC50 equal or exceed 6?
True

----------
- Test System: human B-Raf (Homo sapiens, UniProt P15056)
- Construct: Flag; GST; made in house; host or cells: Sf9 insect cells (B-Raf); E. coli (MEK1-GST)
- Assay Info: B-Raf Kinase to MEK1 ELISA
- Format: biochemical
- Test Context: read-out: % Inhib./10 uM
Readout Label: inhibition at 10 µM
The reply must contain the numeric value and, after it, the unit.

Below, each entry is followed by its recorded inhibition at 10 µM result.
Need inhibition at 10 µM of `CN(C)Cc1cccc(-c2cnn3c(-c4cccc(NC(=O)c5cccc(C(F)(F)F)c5)c4)ccnc23)c1` , thanks.
97%

Need inhibition at 10 µM of `CCOC(=O)c1cnn2c(-c3cccc(NC(=O)c4cccc(C)c4)c3)ccnc12` , thanks.
20%

Need inhibition at 10 µM of `CCOC(=O)c1cnn2c(-c3cccc(NC(=O)c4cc5ccccc5n4C)c3)ccnc12` , thanks.
12%

Pending compound:
Need inhibition at 10 µM of `CCOC(=O)c1cnn2c(-c3cc(NC(=O)c4ccc(C)c(C(F)(F)F)c4)ccc3[N+](=O)[O-])ccnc12` , thanks.
37%

----------
- Test System: human B-Raf (Homo sapiens, UniProt P15056)
- Construct: Flag; GST; made in house; host or cells: Sf9 insect cells (B-Raf); E. coli (MEK1-GST)
- Assay Info: B-Raf Kinase to MEK1 ELISA
- Format: biochemical
- Test Context: read-out: % Inhib./10 uM
# Lookup of reported inhibition at 10 µM keyed by entry

Need inhibition at 10 µM of CCOC(=O)c1cnn2c(-c3cccc(NC(=O)Nc4ccc(C(C)C)cc4)c3)ccnc12 [Example 20] , thanks.
30%

Need inhibition at 10 µM of Cc1ccc(C(=O)Nc2cccc(-c3ccnc4c(-c5cccc(O)c5)cnn34)c2)cc1C(F)(F)F [Example 181] , thanks.
87%

Need inhibition at 10 µM of CC(C)(C)OC(=O)N1CCN(c2cc3nccc(-c4cccc(NC(=O)c5cccc(C(F)(F)F)c5)c4)n3n2)CC1 [Example 206] , thanks.
18%

Need inhibition at 10 µM of O=C(Nc1cccc(-c2ccnc3cc(-c4ccc(CO)cc4)nn23)c1)c1cccc(C(F)(F)F)c1 [Example 135] , thanks.
32%

Need inhibition at 10 µM of O=C(Nc1cccc(-c2ccnc3c(Br)cnn23)c1)Nc1cccc(C(F)(F)F)c1 [Example 166] , thanks.
94%

Need inhibition at 10 µM of CCOC(=O)c1cnn2c(-c3cccc(NC(=O)c4cnccn4)c3)ccnc12 [Example 214] , thanks.
8%

---
Need inhibition at 10 µM of O=C(Nc1cccc(-c2ccnc3c(-c4ccc(CN5CCCC5)cc4)cnn23)c1)c1cccc(C(F)(F)F)c1 [Example 315] , thanks.
102%

Need inhibition at 10 µM of CCOC(=O)c1cnn2c(-c3cccc(NC(=O)c4nccc5ccccc45)c3)ccnc12 [Example 218] , thanks.
73%

Need inhibition at 10 µM of CCOC(=O)c1cc2nccc(-c3cccc(NC(=O)c4cccc(C(F)(F)F)c4)c3)n2n1 [Example 185] , thanks.
6%

Need inhibition at 10 µM of O=C(Nc1cccc(-c2ccnc3cc(-c4ccncc4)nn23)c1)c1ccc(Cl)cc1 [Example 151] , thanks.
33%

Need inhibition at 10 µM of CCOC(=O)c1cnn2c(-c3cccc(NC(=O)Nc4cc(OC)cc(C(F)(F)F)c4)c3)ccnc12 [Example 77] , thanks.
72%

Need inhibition at 10 µM of CCOC(=O)c1cnn2c(-c3cccc(NC(=O)c4cc(Cl)ccc4C)c3)ccnc12 [Example 74] , thanks.
10%

Need inhibition at 10 µM of CCOC(=O)c1cnn2c(-c3cccc(NC(=O)c4ccc(F)c(C(F)(F)F)c4)c3)ccnc12 [Example 2] , thanks.
84%

Need inhibition at 10 µM of O=C(Nc1cccc(-c2ccnc3c(-c4ccc(Cl)cc4)cnn23)c1)c1cccc(C(F)(F)F)c1 [Example 158] , thanks.
39%

Need inhibition at 10 µM of CCOC(=O)c1cnn2c(-c3cccc(NC(=O)Nc4ccc(F)c(C(F)(F)F)c4)c3)ccnc12 [Example 44] , thanks.
90%
